- MEASUREMENT_PROTOCOL: chemical genetic growth profiling, strain panel (AID 1159580);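 also: tested at 20 µM; growth read once vehicle control cultures reached saturation at 30 °C; 1 = growth at the plate median or of vehicle wells; lower values mean less growth of the strain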
- SETTINGS: S. cerevisiae deletion strains, growth OD, locus YLR330W, strain CHS5, hits give low values
Hit rate of the full screen: of about 5,500 compounds, about 2,000 (36%) were called active. Roughly 18% stayed inconclusive and do not appear here. The list shows a part of the results.
# maps each entry to its normalized growth
Answer field: number only, no words.

[Q] Value lookup for normalized growth; key = O=C(CCc1ccc(O)cc1)c1c(O)cc(O)cc1O[C@@H]1O[C@H](CO)[C@@H](O)[C@H](O)[C@H]1O
[A] 1.01

---

- MEASUREMENT_PROTOCOL: chemical genetic growth profiling, strain panel (AID 1159580);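 also: tested at 20 µM; growth read once vehicle control cultures reached saturation at 30 °C; 1 = growth at the plate median or of vehicle wells; lower values mean less growth of the strain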
- SETTINGS: S. cerevisiae deletion strains, growth OD, locus YGL227W, strain vid30, hits give low values
The whole screen tested about 5,500 compounds, of which about 2,000 (36%) were called active. Inconclusive results (about 18%) are left out. Some of the results follow.
REPORTED_PROPERTY: normalized growth
Answer field: number only, no words.

[Q] Value lookup for normalized growth; key = CC[C@H]1OC(=O)[C@H](C)[C@@H](O[C@H]2C[C@@](C)(OC)[C@@H](O)[C@H](C)O2)[C@H](C)[C@@H](O[C@@H]2O[C@H](C)C[C@H](N(C)C)[C@H]2O)[C@](C)(O)C[C@@H](C)[C@@H]2N[C@@H](COCCOC)O[C@H]([C@H]2C)[C@]1(C)O
[A] 0.99

[Q] Now the molecule CC(=O)O[C@H]1CC[C@]2(C)C3CC[C@@]4(C)C(CC5O[C@@]6(CCC(C)CO6)[C@@H](C)C54)C3CC[C@@H]2C1 (stereo partly drawn)
[A] 1.02

[Q] Now the molecule CN1CCN(CC(=O)N2c3ccccc3C(=O)Nc3cccnc32)CC1
[A] 1.02

[Q] Now the molecule O=C(CCBr)N1CCN(C(=O)CCBr)CC1
[A] 1.02

[Q] Now the molecule CC(=O)OC1CCC2(C)C3CC(=O)C4(C)C(CC5OC6(CCC(C)CO6)[C@@H](C)C54)C3CC[C@H]2C1 (stereo partly drawn)
[A] 0.974

***
[Q] Value lookup for normalized growth; key = COc1c2occc2c(OC)c2c(=O)cc(C)oc12
[A] 0.99

[Q] Now the molecule Cc1cc(=O)n(-c2ccccc2)n1C
[A] 0.993

[Q] Now the molecule C1CCC(C(CC2CCCCN2)C2CCCCC2)CC1 (stereo not drawn)
[A] 0.991

The origin of these recorded values is PubChem BioAssay AID1159580.
